ATTRIBUTE_MEASURED: melting point (°C)
The reply should contain only the number, in °C.

Field request: melting point | item: COC(=O)c1ccc(N(C)C(=O)c2cc3nc(N4CCCCC4)sc3s2)cc1 [Compound 31]
178.5

Consider the molecule COc1ccc(NC(=O)c2cc3sc(N4CCC(Oc5ccccc5)CC4)nc3s2)cc1 [Compound 106] and give its measured melting point.
225

For CCC1COCCN1c1nc2sc(C(=O)Nc3ccc4oc(C)nc4c3)cc2s1 (stereo not drawn) [Compound 151] , what is its reported melting point?
176

Given the molecule COc1ncc(NC(=O)c2cc3nc(N4CCCCC4)sc3s2)cn1 [Compound 6] , what is its reported melting point?
274

// returns reported melting point for input O=C(c1cc2nc(N3CCCCC3)sc2s1)N1CCOCC1 [Compound 26]
188

What melting point value was documented for this molecule, COC(=O)C1CCC(NC(=O)c2cc3sc(N4CCCCC4)nc3s2)CC1 (stereo not drawn) [Compound 60] ?
74

Any idea what melting point was measured for Cc1nc2cc(NC(=O)c3cc4sc(N5CCC(C(=O)N(C)C)CC5)nc4s3)ccc2o1 [Compound 138] ?
284.2

Query (molecule): O=C(Nc1ccc(-c2n[nH]cc2F)cc1)c1cc2sc(N3CCOCC3)nc2s1.O=C(O)C(F)(F)F [Compound 159] ; field requested: melting point
287.2

Need melting point, item O=C(Nc1ccc(CN2CCC(c3ccc(Cl)cc3)CC2)cc1)c1cc2sc(N3CCOCC3)nc2s1 [Compound 200]
254.6

Item COc1ccc(NC(=O)c2cc3sc(NC4CCCCC4)nc3s2)cc1 [Compound 79] has what recorded melting point?
231

Which melting point value belongs to O=C(Nc1ccccc1)c1cc2nc(N3CCCCC3)sc2s1 [Compound 25] ?
222.6

Could you share which melting point value was measured for O=C(Nc1ccc(F)nc1)c1cc2sc(N3CCOCC3)nc2s1 [Compound 84] ?
262.3

Consider the molecule CC1CCN(c2ccc(NC(=O)c3cc4sc(N5CCOCC5)nc4s3)cc2)CC1 [Compound 194] and give its measured melting point.
278

What melting point value was documented for this molecule, Cc1nc2ccc(NC(=O)c3cc4sc(N5CCCCC5)nc4s3)cc2o1 [Compound 48] ?
259.2

If you can, please state the reported melting point value of COc1ccc(NC(=O)c2cc3sc(N4CCCCC4)nc3s2)cc1 [Compound 35] .
235

Which melting point reading was recorded for the molecule O=C(Nc1ccc(OCc2ccccc2)cc1)c1cc2nc(N3CCCCC3)sc2s1 [Compound 11] ?
223

Need melting point of Cc1nc2cc(NC(=O)c3cc4sc(N5CCOCC5)nc4s3)c(Cl)cc2o1 [Compound 141] , thanks.
277

Which melting point reading was recorded for the molecule COc1ncc(NC(=O)c2cc3sc(N4CCCCC4)nc3s2)cn1 [Compound 55] ?
219

* * *

Exercise: for every item that follows, state its recorded melting point.
Express the result in °C but write the number alone.

Which melting point is reported for this molecule? `O=C(Nc1ccc2ncccc2c1)c1cc2sc(N3CCCCC3)nc2s1`
279.5

Fill in the blank: the reported melting point of `COc1ccc(NC(=O)c2ccc3nc(N4CCCCC4)ccc3c2)cc1` is ____.
209

Find the recorded melting point belonging to `COc1ccc(NC(=O)c2cc3sc(N4CCCC4)nc3s2)cc1` and report it.
274.4

Quick one: melting point for `CN(C(=O)c1cc2nc(N3CCCCC3)sc2s1)c1ccc(F)c(F)c1` ?
170.1

// lookup melting point for `O=C1Cc2cc(NC(=O)c3cc4nc(N5CCCCC5)sc4s3)ccc2N1`
260

* * *

Give measured melting point for each item. Keep answers brief.
# include the unit after the value

So what does the record say about melting point for `O=C(Nc1ccccc1)c1cc2sc(N3CCCCC3)nc2s1` ?
259.1 °C

I'd like to know its melting point. The molecule in question is `COc1ccc(NC(=O)c2cc3ncsc3s2)cc1`
236 °C

Look up melting point for this molecule: `CCc1ccc(NC(=O)c2cc3sc(N4CCCCC4)nc3s2)cc1`
198 °C

Would you kindly share the measured melting point for `CN(C)C(=O)C1CCN(c2nc3sc(C(=O)Nc4ccc5oc(CN6CCOCC6)nc5c4)cc3s2)CC1` ?
239 °C

What does the record list as melting point for `Cc1nc2cc(NC(=O)c3cc4sc(N(C)CCO)nc4s3)ccc2o1` ?
226.3 °C

Look at this molecule and give its reported melting point. `O=C(Nc1ccc2[nH]ncc2c1)c1cc2sc(N3CCOCC3)nc2s1`
329.8 °C

melting point lookup needed for `COc1ccc(CN(c2nc3sc(C(=O)Nc4ccc(OC)cc4)cc3s2)C(C)C)cc1` , thanks.
131 °C

Tell me the measured melting point of `O=C(Nc1ccc(F)cc1)c1cc2sc(N3CCC(CO)CC3)nc2s1` , please.
246.3 °C

Which melting point value belongs to `Cc1nc2cc(NC(=O)c3sc4nc(N5CCOCC5)sc4c3Br)ccc2o1` ?
269 °C

* * *

ATTRIBUTE_MEASURED: melting point
Answer format: number, then unit.

Would you kindly share the measured melting point for COc1ccc(NC(=O)c2cc3sc(N4CCCC(O)C4)nc3s2)cc1 (stereo not drawn) ?
238 °C

melting point for Cc1nc2cc(NC(=O)c3cc4sc(N5CCC(C(=O)N(C)C)C5)nc4s3)ccc2o1 (stereo not drawn) ?
274 °C

Quick one: melting point of `Nc1ccc(OC(=O)c2cc3nc(N4CCCCC4)sc3s2)cc1` ?
153 °C

Reported melting point for Cc1nc2cc(NC(=O)c3cc4sc(N5CCCC(C(=O)N(C)C)C5)nc4s3)ccc2o1 (stereo not drawn) : what is it?
133.6 °C

Consider the compound shown here: `Cn1cnc2cc(NC(=O)c3cc4sc(N5CCOCC5)nc4s3)ccc21` What is its recorded melting point?
291 °C

// lookup melting point for COc1ccc(NC(=O)c2cc3sc(N4CCCC(OCc5ccccc5)C4)nc3s2)cc1 (stereo not drawn)
169 °C

Sample `COc1ccc(NC(=O)c2cc3sc(N4CCC4)nc3s2)cc1` — what was its melting point?
256 °C

Consider the compound shown here: `COc1ccc(NC(=O)c2cc3sc(N4CCCCC4)nc3s2)cn1` What is its recorded melting point?
232.4 °C

Consider the compound shown here: `O=C(Nc1ccc(OC(F)(F)F)cc1)c1cc2nc(N3CCCCC3)sc2s1` What is its recorded melting point?
238 °C

Return reported melting point; argument: `COc1ccc(OCCNC(=O)c2cc3sc(N4CCOCC4)nc3s2)cc1`
172.1 °C

Name the recorded melting point for `O=C(Nc1cc(-c2ccccc2)[nH]n1)c1cc2sc(N3CCOCC3)nc2s1` .
305 °C

Which melting point reading was recorded for the compound Cc1nc2cc(NC(=O)c3cc4sc(N5CCOCC5C(=O)N(C)C)nc4s3)ccc2o1 (stereo not drawn) ?
288.6 °C

Dear colleague, I am looking for the recorded melting point of the following compound: `Cn1cc2ccc(NC(=O)c3cc4sc(N5CCOCC5)nc4s3)cc2n1`
313.7 °C

Requested field: melting point. Item: `CC(C)(C)OC(=O)c1ccc(NC(=O)c2cc3sc(N4CCOCC4)nc3s2)cc1`
244 °C

Please give the measured melting point for this compound: `O=C(Nc1ccc(-c2ccccc2)cc1)c1cc2sc(N3CCCCC3)nc2s1`
231.1 °C

Endpoint output: melting point of `O=C(Nc1ccc(C(F)(F)F)cc1)c1cc2sc(N3CCCCC3)nc2s1` . Value?
289.2 °C

What value of measured melting point is listed for `COc1ccc(NC(=O)c2cc3sc(N4CCC(OCc5ccccc5)CC4)nc3s2)cc1` ?
190.3 °C

Which melting point value belongs to `CC(C)(C)OC(=O)n1ncc2cc(NC(=O)c3cc4sc(N5CCOCC5)nc4s3)ccc21` ?
331.7 °C

Would you kindly share the measured melting point for `Cc1nc2cc(NC(=O)c3sc4nc(N5CCOCC5)sc4c3C)ccc2o1` ?
226 °C

Which melting point is listed for CC(CNC(=O)c1ccc2nc(N3CCCCC3)sc2c1)c1ccccc1 (stereo not drawn) ?
196 °C

# melting point lookup, item `N#Cc1ccc(NC(=O)c2cc3nc(N4CCCCC4)sc3s2)cc1`
163 °C

Return reported melting point; argument: `Cc1nc2ccc(NC(=O)c3cc4sc(N5CCOCC5)nc4s3)cc2o1`
273.6 °C

Request the reported melting point associated with `COc1ccc(CNC(=O)c2cc3nc(N4CCCCC4)sc3s2)cc1`
179 °C

Report melting point for `Cc1nc2cc(NC(=O)N3CCc4sc(N5CCOCC5)cc4C3)ccc2o1` please.
171.7 °C

For the compound shown here, `COc1ccc(CCNC(=O)c2cc3sc(N4CCCCC4)nc3s2)cc1` , give the reported melting point.
177.2 °C

Please give the measured melting point for this compound: Cc1nc2cc(NC(=O)c3cc4sc(N5CCOC(c6ccccc6)C5)nc4s3)ccc2o1 (stereo not drawn)
223.5 °C

If you can, please state the reported melting point value of `COC(=O)C1CCN(C(=O)c2cc3sc(N4CCCCC4)nc3s2)CC1` .
136 °C

Field request: melting point | item: `COc1ccc(NC(=O)c2cc3sc(NC(=O)C4CCCCC4)nc3s2)cc1`
271 °C

For the compound `Cc1cc2cc(NC(=O)c3cc4sc(N5CCOCC5)nc4s3)ccc2o1` , what melting point is on record?
231.3 °C

Reported melting point, compound `Cc1nc2cc(NC(=O)c3cc4sc(N5CCOCC5)nc4s3)c(F)cc2o1` : ____
287 °C

Recorded melting point for `COc1ccc(NC(=O)c2ccc3sc(N4CCCCC4)nc3c2)cc1` , please?
222 °C

Look up melting point for this compound: `COc1ccc(NC(=O)c2cc3sc(N4CCN(C)CC4)nc3s2)cc1`
219.8 °C

I would be grateful if you could share the reported melting point for COC(=O)C1CCC(NC(=O)c2cc3nc(N4CCCCC4)sc3s2)CC1 (stereo not drawn) .
191 °C

What value of melting point has been reported for the following compound? `COc1c(C(=O)Nc2ccc3oc(C)nc3c2)sc2nc(N3CCOCC3)sc12`
269 °C

melting point lookup needed for `O=C(Nc1ccc(F)cc1)c1cc2sc(N3CCCCC3)nc2s1` , thanks.
233 °C

Field request: melting point | item: `COCn1c(N2CCOCC2)nc2sc(C(=O)Nc3ccc4oc(C)nc4c3)cc21`
117.2 °C

All values here come from patent US11279714B2.
